Documented IC50 across a set of compounds
target: UniProt Q7ZJM1; assay: Inhibition of the 3'-processing activity of HIV-1 integrase
Sequence (Q7ZJM1 whole entry): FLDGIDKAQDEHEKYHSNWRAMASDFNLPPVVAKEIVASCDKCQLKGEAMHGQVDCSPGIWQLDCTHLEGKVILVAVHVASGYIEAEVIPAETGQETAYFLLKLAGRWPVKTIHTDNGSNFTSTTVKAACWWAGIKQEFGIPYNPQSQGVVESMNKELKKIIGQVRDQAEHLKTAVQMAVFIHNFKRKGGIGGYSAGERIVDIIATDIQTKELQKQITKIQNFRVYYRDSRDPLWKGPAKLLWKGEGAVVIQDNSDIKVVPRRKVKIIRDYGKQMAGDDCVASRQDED
Just the number please, in µM, no unit attached.

>>> reported_value("O=C1Sc2ccccc2C(=O)N2C[S+]([O-])CC12 (centres undefined)")
200

Then there is this compound:
So for O=C1Sc2cc3ccccc3cc2C(=O)N2CSCC12 (centres undefined) , the logged IC50 turned out to be 92

====

tested on: CCRF-CEM; assay: The compound was tested for inhibitory activity against HIV-1 infected CEM cells; format: functional, cell-based; conditions: Homo sapiens
value-kind: pEC50
Bear in mind: pEC50 is minus log10 of a mol/L concentration; give just that figure.

So for O=C1Sc2ccccc2C(=O)N2CCSC12 (stereo unspecified) , the logged pEC50 turned out to be 3.97
